System: IGROV1 ovarian
Assay: NCI-60 one-dose screen, 48 h
Details: 10 µM unless noted
About 83,000 compounds went through this panel and 20% of them were active in at least one assay; those are over-represented in the sample as a whole. Activity calls are given as the source filed them. The calls were made as follows: active = growth percent below 10; inactive = the rest.
Your answer must be one of the following: active, inactive

What is the recorded call for this compound in the test? CCOC(=O)c1c(NC(=O)c2cccc(C(F)(F)F)c2)sc2c3c(ccc12)OCN(C)C3
active

What is the recorded call for this compound in the test? Cn1c2nc3ccccc3c-2cc2ccccc21
active

Others:
What is the recorded call for this compound in the test? O=C(O)CC1CCN(c2ccc3nnc(Cl)n3n2)CC1
inactive

What is the recorded call for this compound in the test? Cc1ccc(-c2nc(SCC(=O)c3ccccc3)nc(Nc3ccc(S(N)(=O)=O)cc3)c2C#N)cc1
inactive

What is the recorded call for this compound in the test? C=C(C)[C@@H]1CC[C@]2(COCCCNCCCN)CC[C@]3(C)[C@H](CC[C@@H]4[C@@]5(C)CC[C@H](O)C(C)(C)[C@@H]5CC[C@]43C)[C@@H]12
active

###

Tested on: IGROV1 ovarian
Test: NCI-60 one-dose screen, 48 h
Settings: 10 µM unless noted
This is part of a sample that, as a whole, favours compounds with a hit. Of some 83,000 tested, about 20% had one in any assay. Activity calls are given as the source filed them. How the source made its calls: active means growth percent below 10; inactive means the rest.
Your answer must be one of the following: Yes for active, No for inactive

Examples from the recorded data:
What is the recorded call for this compound in the test? CCc1cc(OC(=O)N2CCN(CCC(C)(COC(C)(C)C)COC(C)(C)C)CC2)ccc1Nc1cc(-c2ccc(-n3cccn3)cc2)[nH]n1
No

What is the recorded call for this compound in the test? CCCCN1C(=O)/C(=c2\sc3n(c2=O)C2C(NN=3)N(CC)C(=O)N2CC)c2cc(C)ccc21 (centres undefined)
No

What is the recorded call for this compound in the test? COC(=O)c1cccc(NC2=C(Cl)C(=O)C(C)=C(C)C2=O)c1
No

What is the recorded call for this compound in the test? Clc1cccc(/C=N/Nc2nc(N/N=C/c3cccc(Cl)c3)nc(N3CCCCC3)n2)c1
No

What is the recorded call for this compound in the test? CCc1nnc(NC(=O)c2cc(-c3ccc(Cl)cc3Cl)oc2C)s1
No

What is the recorded call for this compound in the test? C=C(C)[C@@H]1CC[C@]2(COP(=O)(OCC)OCC)CC[C@]3(C)[C@H](CC[C@@H]4[C@@]5(C)CC[C@H](OP(=O)(OCC)OCC)C(C)(C)[C@@H]5CC[C@]43C)[C@@H]12
No

Others:
What is the recorded call for this compound in the test? COc1cc(C(=O)c2cc(C(C)=O)c3c(C)cccn23)cc(OC)c1OC
No

What is the recorded call for this compound in the test? c1ccc(-c2cn3c(-c4c[nH]c5ccccc45)csc3n2)cc1
No

What is the recorded call for this compound in the test? Cc1ccc(CSC2=C(Cl)CN(c3ccc(Cl)cc3)C2=O)cc1
No

What is the recorded call for this compound in the test? CC(C)(C)c1cc(NC(=O)Nc2ccc(-c3cn4c5c(sc4n3)CCc3c[nH]cc3-5)cc2)no1
No

What is the recorded call for this compound in the test? CC(=C(c1ccc(OCCCN(C)C)cc1)c1ccc(OCCCN(C)C)cc1)c1ccc(Cl)cc1
No

What is the recorded call for this compound in the test? CNC(=O)c1cc(Oc2ccc3c(c2)sc2nc(-c4ccc(N(C)C)cc4)cn23)ccn1
No

What is the recorded call for this compound in the test? CCOC(=O)Nc1ccc2c(ccn2C(=O)c2cccc(F)c2)c1
No

What is the recorded call for this compound in the test? Cc1ccc2c(n1)C(=O)C(Cl)=C(Nc1ccc(C(C)C)cc1)C2=O
Yes

###

Listed here are compounds together with their documented growth.
System: RXF 393 renal
Assay: NCI-60 one-dose screen, 48 h (100 = growth as untreated, 0 = no growth, -100 = all killed)
Settings: 10 µM unless noted
The panel holds about 83,000 compounds, 20% with a hit somewhere; the sample as a whole holds those more often.
Just the number please, in %, no unit attached.

Worked cases, growth given:
Specify measured growth for CC(Nc1c(C#N)cnc2ccc(-c3cncc(-c4n[nH]c(=O)o4)c3)cc12)c1ccccc1 (centres undefined) .
-24

Specify measured growth for CC(C)(C)c1cc(NC(=O)Nc2ccc(-c3cn4c5c(sc4n3)CCc3c[nH]cc3-5)cc2)no1 .
-24.4

Specify measured growth for Clc1ccc2[nH]cc(-c3nn4cc(-c5ccncc5)nc4s3)c2c1 .
79

Specify measured growth for N#Cc1nc(-c2ccccc2)oc1N1CCC(C2(C(F)(F)F)N=N2)CC1 .
99.4

Specify measured growth for CN(C)S(=O)(=O)c1ccc(-c2nc(C(Cl)Cl)nc3cc(-c4ccc(F)cc4)nn23)cc1 .
-19.2

Specify measured growth for CN1CCN(c2ccc(Nc3nc(NCCNC(=O)c4ccc(F)cc4)c4sccc4n3)cc2)CC1 .
14.1

Specify measured growth for CCc1cc2c(cc1Cl)nc1c(=O)[nH]c(=O)nc-1n2CCOCC(C)C .
80.5

Specify measured growth for O=C(/C=C/c1cccc(C(F)(F)F)c1)Nc1cccc(C(F)(F)F)c1 .
88.7

Others:
Specify measured growth for CC1(C)CC[C@]2(C(=O)O)CC[C@]3(C)C(=CC[C@@H]4[C@@]5(C)CC[C@H](NOCCCN)C(C)(C)[C@@H]5CC[C@]43C)[C@@H]2C1 .
68.8

###

Test system: SF-295 CNS
Assay: NCI-60 one-dose screen, 48 h (100 = growth as untreated, 0 = no growth, -100 = all killed)
Conditions: 10 µM unless noted
The panel holds about 83,000 compounds, 20% with a hit somewhere; the sample as a whole holds those more often. Activity calls are given as the source filed them. Rule for the calls: active = growth percent below 10; inactive = the rest.
Measure: growth

Specify measured growth for O=C(CSc1nc2ccccc2c(=O)n1-c1ccc(Cl)c(Cl)c1)Nc1ccc(S(=O)(=O)Nc2ccc(Cl)nn2)cc1 .
101% (inactive)

Specify measured growth for CCOC(=O)c1cccnc1Nc1ccc(NC(=O)Nc2ccc(Cl)c(C(F)(F)F)c2)cc1 .
9.85% (active)

Specify measured growth for CN1CCN(c2ccc(Nc3nc(NCCCNS(=O)(=O)c4ccc(F)cc4)c4sccc4n3)cc2)CC1 .
32.4% (inactive)

Specify measured growth for COc1cc2c3c(cc4c5c(ccc4c3c1OC)OCO5)N(CCN(C)C)C2=O .
-16.8% (active)

Consider the additional compound presented here.
Specify measured growth for O=C(CSc1nnc(-c2ccc(Cl)cc2)n1-c1ccccc1)Nc1cccc(F)c1 .
9.38% (active)

###

System: UACC-62 melanoma
Experiment: NCI-60 one-dose screen, 48 h (100 = growth as untreated, 0 = no growth, -100 = all killed)
Conditions: 10 µM unless noted
Method: Growth inhibition of the UACC-62 human tumor cell line is measured as a screen for anti-cancer activity. Cells are grown in 96 well plates and exposed to the test compound for 48 hours. Compounds are tested at a single concentration, which is 10^-5 M for most compounds. The reported endpoint is percent growth (GI% or GIPRCNT), where numbers from 0 - 100% represent growth inhibition, and numbers from -100% - 0 represent cell death. For example, a value of 40 represents 60% growth inhibition. […]
About 83,000 compounds went through this panel and 20% of them were active in at least one assay; those are over-represented in the sample as a whole.
Threshold check on growth: at or above 80% gives Condition met, strictly below gives Condition not met.

Could you tell me if the measured growth of CCOC(=O)c1c(NC(=O)c2cccc(C(F)(F)F)c2)sc2c3c(ccc12)OCN(C)C3 reaches 80% or more?
Condition not met

Could you tell me if the measured growth of NC(N)=NS(=O)(=O)c1ccc(N=Nc2c(N)nn(-c3ccc([N+](=O)[O-])cc3[N+](=O)[O-])c2N)cc1 reaches 80% or more?
Condition met

Could you tell me if the measured growth of CC1CC(=O)C2=C(C1)Nc1ccc(Br)cc1CC2c1c[nH]c2ccc(Br)cc12 (stereo not drawn) reaches 80% or more?
Condition not met

Could you tell me if the measured growth of CN1CCN(Cc2ccc(NC(=O)c3cncc(C#Cc4cnc5ccc(O[C@@H]6CCOC6)nn45)c3)cc2C(F)(F)F)CC1 reaches 80% or more?
Condition not met

Could you tell me if the measured growth of CN1c2ccccc2Sc2cc(/C=N/Nc3ccnc4cc(Cl)ccc34)ccc21 reaches 80% or more?
Condition met

Could you tell me if the measured growth of COc1ccc(/C=N/NC(=O)c2c(N)nn(C)c2Nc2ccccc2)cc1Oc1ccccc1 reaches 80% or more?
Condition met

Could you tell me if the measured growth of C#C[C@]1(O)CC[C@H]2[C@@H]3CC=C4c5sc(Nc6cc(Cl)ccc6OC)nc5CC[C@]4(C)[C@H]3CC[C@@]21C reaches 80% or more?
Condition not met

###

System: SN12C renal
Experiment: NCI-60 one-dose screen, 48 h (100 = growth as untreated, 0 = no growth, -100 = all killed)
Settings: 10 µM unless noted
The panel holds about 83,000 compounds, 20% with a hit somewhere; the sample as a whole holds those more often. Activity calls are given as the source filed them. Rule for the calls: active = growth percent below 10; inactive = the rest.
Measure: growth

With SN12C renal as the test system, provide measured growth for this compound: CC(=O)OC[C@@]12Oc3c(cccc3-c3ccc(O)c4c3O[C@]3(COC(C)=O)C(=C4O)C(=O)C[C@H](C)[C@@H]3OC(C)=O)C(O)=C1C(=O)C[C@H](C)[C@@H]2OC(C)=O
7.7% (active)

Others:
With SN12C renal as the test system, provide measured growth for this compound: CN1CC[C@@H]2[C@@]3(C)CC[C@H](O)C(C)(C)[C@@H]3CC[C@@]2(C)[C@]2(C)CC[C@@]3(CO)CCC(C)(C)C[C@@H]3C12 (stereo partly drawn)
91.9% (inactive)
